We begin with a simple list: items and their reported melting point.

Molecule | melting point
NCCCP(=O)(O)CC(O)CN1C(=O)c2ccccc2C1=O (centres undefined) | 268 to 271 °C
CCCCOc1ccc2sc(-c3ccccn3)nc(=O)c2c1 | 161 to 162 °C
COc1cccc2c1CCc1nc(-c3ccncc3)oc1-2 | 158 °C
O=C1Nc2ccc(Cl)cc2C2(c3ccccc3)NCCCN12 (centres undefined) | 275 to 276 °C
CCCN(CCC)S(=O)(=O)c1cccc(C(=O)Nc2ccc(Br)cc2)c1 | 160 to 162 °C
COc1nnc(N)c(=O)n1C | 198 to 199 °C
CC(C)(C)NCC(Cc1ccc(OCc2ccccc2)cc1)NCc1ccc(C(C)(C)C)cc1 (centres undefined) | 63 to 65 °C
CC(C)(C)NC(=O)[C@@H]1CSCN1C[C@@H](O)[C@H](Cc1ccccc1)NC(=O)OCc1ccccc1 | 62 to 65 °C
COc1ccc(C(O)CNC(C)C)s1 (centres undefined) | 81 °C
Cc1ccc(S(=O)(=O)CC(=O)C(C)(C)C)cc1 | 119 to 122 °C
CC(=O)OC(C)OC(=O)[C@H](Cc1ccc(-c2c(C)n(C)c(=O)n(C)c2=O)cc1)NC(=O)c1c(C)cccc1Cl (some centres undefined) | 84 to 88 °C
CCOC(=O)c1sc(-n2ccc(OCc3ccc(C(F)(F)F)o3)cc2=O)nc1C | 196 to 198 °C
CCCCc1cc(-c2nnn[nH]2)ncc1C(=O)O | > 300 °C
CC(=O)NC[C@H]1CN(c2ccc(Br)cn2)C(=O)O1 | 166 to 168 °C
